experiment: protease stability score; higher = more stable; yeast display proteolysis, trypsin and chymotrypsin;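 note: relative to predicted unfolded state with 0 unfolded-like and 1 meaning tenfold more protease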
Recorded measurements of protease stability score, one per entry
Returns: the value as a bare number; no unit string appended.

Guide cases for protease stability score, answers given:
[
  {
    "SEQUENCE_CONTENT": "DEKERLAHEFHERFLEALMTGDEHHIEEMFDPNARTRQGDKTFHGRERSLHLISEWWRQIDVVRDIHIHEIKFQGDFLSFHLMIDGEINGRRDELVVHVESRKIDGKWFLHSVTYT",
    "protease stability score": 0.497
  },
  {
    "SEQUENCE_CONTENT": "SEDEEMLRLAWEIHREILDTGDWKMFEELADPHTRIEVGEYINVGRETASKFILDNVRKIKNMRLHVHEHRTIDGKLEIHLRVNVNGQHRTLFLFASKFDGVWIITSVVVEIR",
    "protease stability score": 1.18
  }
]

Moving on to the next sequence.
The sequence "EEEEEDARRASKIFYHNFLTGDEQNLLKLADPHVLLIINGVHFHGWERYKKWEEERRDKFKNVRLELEDMDVEVIGDKIESIIHLRVDIGDKRIHMEVIFIIEKVDGRWKLRSQEVRIE" showed protease stability score equal to 1.03
